Values from PubChem BioAssay (NCI)

Tested on: MDA-MB-435
Test: NCI tumour cell line growth inhibition, 48 h
Where a SMILES comes first, the peptide text is derived from it. [ ]: non-standard residue; d: D form. Ac5c = NC1(C(=O)O)CCCC1
// reported TGI for each item listed

Sample records with TGI:
molecule: CC(=O)CC(=O)Nc1ccc2ccccc2c1
system.name: MDA-MB-435
data.value: > 100 µM
--
molecule: C=C1C(=O)C23CC1C[C@H](OC(C)=O)[C@H]2C1(C)C(OC(C)=O)C[C@H](O)C(C)(C)[C@H]1C(=O)[C@@H]3OC(C)=O (stereo not given in full)
system.name: MDA-MB-435
data.value: 11.4 µM
--
molecule: NC1(C(=O)NC2(C(=O)O)CCCC2)CCCC1 (H-[Ac5c]-[Ac5c]-OH)
system.name: MDA-MB-435
data.value: > 100 µM
--
molecule: COc1ccc(/C=C2\CCC(CNc3cc(C)on3)C2=O)cc1 (stereo not given)
system.name: MDA-MB-435
data.value: > 100 µM
--
molecule: O=C1CC(NC(=O)C(F)(F)F)c2c1csc2Br (stereo not given)
system.name: MDA-MB-435
data.value: > 100 µM

Q) Recall the recorded TGI for CC(C)(C#N)c1cc(Cn2cncn2)cc(C(C)(C)C#N)c1 with MDA-MB-435 and state it.
A) > 10000 µM

Q) And O=C1CC(CC(O)[C@@H]2CCCC[C@@H]2O)CC(=O)N1c1ccccc1 (stereo not given in full) ?
A) > 100 µM

Q) And CC1(C)CN=C(c2ccc3c(c2)Cc2cc(C4=NCC(C)(C)N4)ccc2-3)N1 ?
A) 98.9 µM

Q) And CC(O)c1cccc(NCc2c3ccccc3c(=O)n3c2oc2ccccc23)c1 (stereo not given) ?
A) > 100 µM

Q) And OC1(CCc2ccccc2)COC(C(F)(F)F)(C(F)(F)F)C1 (stereo not given) ?
A) > 100 µM

====

Test system: UACC-62 melanoma
Assay: NCI tumour cell line growth inhibition, 48 h; in the data active means GI50 below about 0.43 µM; inactive means the rest
Permitted responses: active, inactive

compound: CC(C)(C#N)c1cc(Cn2cncn2)cc(C(C)(C)C#N)c1
label: inactive
//
compound: COc1cc(/C=C/C(=O)CC(=O)/C=C/c2cc(OC)c(OC)c(OC)c2)cc(OC)c1OC
label: inactive
//
compound: CCOC(=O)c1cc(C#N)c(=O)n(/N=C(\C)c2ccncc2)c1O
label: inactive
//
compound: CC12OC(c3ccccc3)=CC(c3ccc(Cl)cc3)=C1C(c1ccccc1)=CC2=O (stereo not drawn)
label: inactive
//
compound: O=c1c2c(nc3n1CCS3)[nH]c1ccccc12
label: inactive
//
compound: COc1ccc(CN(C)c2ccc(CO)c(Cl)c2)cc1
label: active
//
compound: O=S(=O)(NC1=NCCN1C(=S)SN1CCn2c1nsc2=S)c1ccc(Br)cc1
label: inactive
//
compound: COc1ccc(/C=N\NC(=O)CN2CCN(c3cc4c(cc3F)c(=O)c(C(=O)N/N=C/c3ccc(OC)c(OC)c3)cn4C3CC3)CC2)cc1OC
label: inactive
//
compound: O=C(/C=C/c1ccc(F)cc1)c1ccc(Cl)cc1Cl
label: inactive
//
compound: CC(C)c1ccc(C(=O)Nc2nc3ccc(O)cc3s2)cc1
label: active

Q) Give the logged outcome of this assay for the following compound: CCN1CCN(C(=O)[C@]23CC[C@@H](C)[C@H](C)[C@@H]2C2=CC[C@@H]4[C@@]5(C)C/C(=C/c6ccncc6)C(=O)C(C)(C)[C@@H]5CC[C@@]4(C)[C@]2(C)CC3)CC1
A) inactive

Q) And O=c1c(Oc2ccc(F)cc2F)cc2cnc(NC3CCOCC3)nc2n1C1CCS(=O)(=O)CC1 ?
A) inactive

Q) And Cc1ccccc1NC(=O)N/C(N)=N/c1nc(-c2cccc([N+](=O)[O-])c2)cs1 ?
A) inactive

====

Tested on: SR leukemia
Assay: NCI tumour cell line growth inhibition, 48 h; in the data active = GI50 below about 0.43 µM; inactive = the rest
Permitted responses: active, inactive

Use these answered entries as a reference point.
compound: O=C(O[C@H]1CN[C@H](C#Cc2cc3ncnc(Nc4ccc5c(ccn5Cc5cc(F)ccc5F)c4)c3s2)C1)N1CCOCC1
label: inactive

compound: COC(=O)c1cc2c(cc1Cl)SC(N(N(C)C)S(=O)(=O)c1ccc(Br)s1)=NS2(=O)=O
label: inactive

compound: CC1=C2[C@@H](CC1)[C@]1(C)O[C@@](C3CCCCC3)(C[C@H]1OC(=O)CO)[C@H]2OC(=O)/C=C/c1ccccc1
label: inactive

compound: CCOC(=O)c1cc(C#N)c(=O)n(/N=C(\C)c2ccncc2)c1O
label: inactive

compound: O=Cc1ccc(-c2cc(C=O)c(-c3cccs3)[nH]2)s1
label: inactive

compound: CCN(CC)CC(O)CNc1ccc(NCC2CO2)c2c1C(=O)c1ccccc1C2=O (stereo not given)
label: active

Q) Give the logged outcome of this assay for the following compound: NOCC(=O)O
A) inactive

Q) And CC12OC(c3ccccc3)=CC(c3ccc(Cl)cc3)=C1C(c1ccccc1)=CC2=O (stereo not given) ?
A) inactive

Q) And CC(O)c1cccc(NCc2c3ccccc3c(=O)n3c2oc2ccccc23)c1 (stereo not given) ?
A) inactive

Q) And Cc1nc2sc(C(=O)Nc3cccc(Cl)c3C)c(N)c2cc1C(=O)/C=C/c1ccccc1 ?
A) active

====

Test system: COLO 205 colon
Test: NCI tumour cell line growth inhibition, 48 h; in the data active = GI50 below about 0.43 µM; inactive = the rest
Permitted responses: active, inactive

Q) Give the logged outcome of this assay for the following compound: CC(C)c1ccc(C(=O)Nc2nc3ccc(O)cc3s2)cc1
A) inactive

Q) And O=c1c2c(nc3n1CCS3)[nH]c1ccccc12 ?
A) inactive

Q) And O=C(/C=C/c1ccc(F)cc1)c1ccc(Cl)cc1Cl ?
A) inactive

Q) And COc1cc(OC)c(/C=C/S(=O)(=O)Cc2cnc(OC)c(N)c2)c(OC)c1 ?
A) active

Q) And CCN(CC)CC(O)CNc1ccc(NCC2CO2)c2c1C(=O)c1ccccc1C2=O (stereo not drawn) ?
A) inactive

====

System: SK-MEL-28 melanoma
Assay: NCI tumour cell line growth inhibition, 48 h
measurement.type: TGI

molecule: CCN(CC)CC(O)CNc1ccc(NCC2CO2)c2c1C(=O)c1ccccc1C2=O (stereo not given)
system.name: SK-MEL-28 melanoma
TGI: 3.5 µM
--
molecule: O=C1c2ccccc2C(=O)N1CCCSc1ccccc1
system.name: SK-MEL-28 melanoma
TGI: > 100 µM
--
molecule: N#CC(C#N)N=Cc1ccncc1
system.name: SK-MEL-28 melanoma
TGI: > 100 µM
--
molecule: COc1cc(/C=C(\C#N)C(=O)c2ccccc2)ccc1OCc1ccccc1
system.name: SK-MEL-28 melanoma
TGI: > 100 µM

Then there is this molecule:
Q) TGI lookup needed for COC(=O)c1c(O)ccc2c1c1c(n2Cc2ccccc2)C(=O)c2ccccc2C1=O , thanks.
A) 31.7 µM

====

Tested on: M14 melanoma
Test: NCI tumour cell line growth inhibition, 48 h
measurement.type: TGI

compound: CC(=O)C(=[N+]=[N-])C(=O)NCC#N
data.value: > 10 µM
//
compound: NC(=O)C(=Cc1ccc(C(O)P(=O)(O)O)cc1)C(N)=O (stereo not given)
data.value: > 100 µM

Q) TGI lookup needed for O=c1c2cc(Cl)ccc2oc2ccc(OCCCCCN3CCCCC3)cc12 , thanks.
A) 2.84 µM

Q) And Cc1cc(C)nc(NS(=O)(=O)c2ccc(NNc3c4ccccc4nc4c(C(=O)Nc5ccc(S(=O)(=O)Nc6ncccn6)cc5)cccc34)cc2)n1 ?
A) > 100 µM

Q) And c1ccc2c(c1)CCC/C2=N\OCC1CO1 (stereo not given) ?
A) > 100 µM

Q) And Cc1nc2sc(C(=O)Nc3cccc(Cl)c3C)c(N)c2cc1C(=O)/C=C/c1ccccc1 ?
A) 1.35 µM

Q) And CCOC(=O)Nc1nc2ccc(Cn3cccc3)cc2[nH]1 ?
A) > 100 µM

Q) And Cc1c(C)c2c(c(N)c1C#N)C(=O)N(CCc1ccccc1)C2=O ?
A) > 100 µM

Q) And C=C1C(=O)C23CC1C[C@H](OC(C)=O)[C@H]2C1(C)C(OC(C)=O)C[C@H](O)C(C)(C)[C@H]1C(=O)[C@@H]3OC(C)=O (stereo not given in full) ?
A) 9.5 µM

Q) And O=C(Nc1ccc(Cl)cc1)C(=O)C(C(=O)c1ccccc1-c1ccccc1)C1OC(=O)c2ccccc21 (stereo not given) ?
A) 42.4 µM

Q) And CCOC(=O)CCC(NC(=O)c1ccc(CNc2nc3ccccc3nc2C(=O)OCC)cc1)C(=O)OCC (stereo not given) ?
A) > 100 µM

Q) And CCCCCCCCCCCCCCCCCCNc1ccn(C2OC(COP(=O)(O)OC3CC(n4cc(F)c(=O)[nH]c4=O)OC3COP(=O)(O)OCC3OC(n4ccc(N)nc4=O)C(O)C3O)C(O)C2O)c(=O)n1 (stereo not given) ?
A) 23.4 µM

Q) And CO[C@H]1c2cccc3cccc(c23)[C@@H]1n1[nH]c(=O)n(C(C)(C)C)c1=O ?
A) > 100 µM

Q) And OC1(CCc2ccccc2)COC(C(F)(F)F)(C(F)(F)F)C1 (stereo not given) ?
A) > 100 µM

Q) And Cc1cc(C)nc(NS(=O)(=O)c2ccc(Nc3c4ccccc4nc4c(C(=O)NNCCO)cccc34)cc2)n1 ?
A) > 100 µM

Q) And CC(C)=CCC[C@@H](C)C1=C(O)C(O)C(C)=C2N=C(c3ccccc3)C(=O)OC21 (stereo not given in full) ?
A) > 17.8 µM

Q) And COC(=O)C(Cc1c[nH]c2ccccc12)N=C1Nc2ccncc2S(=O)(=O)N1c1ccccc1 (stereo not given) ?
A) > 100 µM

Q) And CN1CCC2(CC1)SC[C@H]1C(=O)N(c3ccc(Cl)cc3)C(=O)N12 ?
A) > 100 µM
